assayed.target: Dipeptidyl peptidase 4 (Homo sapiens)
Sequence (P27487 whole entry): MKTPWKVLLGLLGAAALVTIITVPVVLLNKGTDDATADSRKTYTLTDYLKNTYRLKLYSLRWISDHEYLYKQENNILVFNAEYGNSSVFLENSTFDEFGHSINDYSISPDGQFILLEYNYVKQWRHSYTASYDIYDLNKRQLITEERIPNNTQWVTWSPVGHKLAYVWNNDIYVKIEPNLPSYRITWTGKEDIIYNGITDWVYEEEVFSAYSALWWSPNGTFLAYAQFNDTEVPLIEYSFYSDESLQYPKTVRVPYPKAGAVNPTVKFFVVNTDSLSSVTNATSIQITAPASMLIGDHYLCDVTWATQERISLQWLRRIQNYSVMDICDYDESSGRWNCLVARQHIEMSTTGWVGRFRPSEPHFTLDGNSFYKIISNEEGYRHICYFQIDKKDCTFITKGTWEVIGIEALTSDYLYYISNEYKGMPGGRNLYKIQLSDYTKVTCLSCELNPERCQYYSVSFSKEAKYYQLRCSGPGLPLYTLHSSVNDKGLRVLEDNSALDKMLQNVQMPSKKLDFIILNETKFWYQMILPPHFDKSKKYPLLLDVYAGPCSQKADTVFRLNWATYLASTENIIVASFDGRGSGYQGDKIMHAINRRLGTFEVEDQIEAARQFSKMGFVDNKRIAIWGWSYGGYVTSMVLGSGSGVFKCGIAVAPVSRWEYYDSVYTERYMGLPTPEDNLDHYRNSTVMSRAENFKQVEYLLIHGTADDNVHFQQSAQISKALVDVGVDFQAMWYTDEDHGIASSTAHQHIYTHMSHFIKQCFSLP
Label key: 1 (yes) means Ki under 400 nM; 0 (no) means Ki of 400 nM or more.

Exercise: Is Ki strictly under 400 nM for the entry CCC(C)[C@H](N)C(=O)N1COC[C@H]1C#N (stereo not given in full) ?
Key: 0 (no)

Exercise: Is Ki strictly under 400 nM for the entry N#C[C@@H]1CSCN1C(=O)C(CCCCN)NC(=O)OCc1ccccc1 (stereo not given in full) ?
Key: 1 (yes)

Exercise: Is Ki strictly under 400 nM for the entry N#C[C@@H]1CSCN1C(=O)C(N)C1CCCC1 (stereo not given in full) ?
Key: 1 (yes)

Exercise: Is Ki strictly under 400 nM for the entry CCC(C)[C@H](N)C(=O)N1CSCCC1C#N (stereo not given in full) ?
Key: 0 (no)

Exercise: Is Ki strictly under 400 nM for the entry CC[C@H](C)[C@H](N)C(=O)N1C[S+]([O-])C[C@H]1C#N (stereo in doubt; 9) ?
Key: 0 (no)

---

Assignment: determine reported half-life for the given compounds.
assay.overview: Half life period in aqueous solution
Type: ADME
assay.conditions: aqueous solution
Number only, in h; omit the unit.

Exercise: So what's the measured half-life for this one? CC[C@H](C)[C@H](N)C(=O)N1C[S+]([O-])C[C@H]1C#N (stereo in doubt; 7)
Key: 1.25

Exercise: So what's the measured half-life for this one? N#C[C@@H]1CSCN1C(=O)C(N)C1CCCC1 (stereo partly specified)
Key: 5

Exercise: So what's the measured half-life for this one? CCC(C)[C@H](N)C(=O)N1CCC[C@H]1C#N (stereo partly specified)
Key: 48

---

Assignment: determine reported half-life for the given compounds.
assay.overview: Half life period in aqueous solution
Type: ADME
assay.conditions: aqueous solution

Exercise: So what's the measured half-life for this one? CCC(C)[C@H](N)C(=O)N1CSCCC1C#N (stereo partly drawn)
Key: > 48 h

Exercise: So what's the measured half-life for this one? N#C[C@@H]1CSCN1C(=O)C(CCCCN)NC(=O)OCc1ccccc1 (stereo partly drawn)
Key: > 48 h

Exercise: So what's the measured half-life for this one? CCC(C)[C@H](N)C(=O)N1COC[C@H]1C#N (stereo partly drawn)
Key: > 48 h
